Entries and their measured koff follow.
# Experimental System: T1, recombinant human ENTPD2 extracellular domain (residues 29-462) with C-terminal Avi-His6 tag (human, UniProt Q9Y5L3 29-462, biotinylated on the AviTag in the epitope binning assay)
# T1 construct: also called human ENTPD2 ECD; Human ENTPD2-Avi-His6 protein
# T1 sequence (Q9Y5L3 29-462): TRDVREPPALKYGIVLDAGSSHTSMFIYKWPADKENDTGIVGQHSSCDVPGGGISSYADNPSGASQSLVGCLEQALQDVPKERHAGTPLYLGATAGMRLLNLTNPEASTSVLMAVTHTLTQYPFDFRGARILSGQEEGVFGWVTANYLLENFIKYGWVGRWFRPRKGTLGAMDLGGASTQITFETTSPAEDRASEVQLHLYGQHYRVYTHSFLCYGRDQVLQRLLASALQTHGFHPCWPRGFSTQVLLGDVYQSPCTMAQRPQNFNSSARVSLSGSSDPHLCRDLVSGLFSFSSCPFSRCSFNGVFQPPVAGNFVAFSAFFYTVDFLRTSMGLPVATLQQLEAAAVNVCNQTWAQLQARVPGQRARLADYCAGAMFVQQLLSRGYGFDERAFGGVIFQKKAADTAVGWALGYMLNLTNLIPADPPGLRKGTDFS
# Experiment Notes: SPR Biacore, mAb captured, ECD analyte, 25C
# number only, unit s⁻¹ dropped from output

Req: I am curious: what koff value has been reported for ANTI-HUMAN ENTPD2 MAB8 (antibody, human IgG1, lambda, V domains shown, also called Anti-ENTPD2 mAb8) VH: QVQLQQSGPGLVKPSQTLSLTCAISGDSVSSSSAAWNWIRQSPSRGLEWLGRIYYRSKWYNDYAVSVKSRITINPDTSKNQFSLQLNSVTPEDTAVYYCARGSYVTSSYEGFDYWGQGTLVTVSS VL: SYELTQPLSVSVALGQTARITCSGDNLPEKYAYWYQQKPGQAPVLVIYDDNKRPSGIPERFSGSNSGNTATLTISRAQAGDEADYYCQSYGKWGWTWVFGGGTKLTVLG ?
Resp: 0.00094

Req: Need koff, item ANTI-HUMAN ENTPD2 MAB10 (antibody, human IgG1, lambda, V domains shown, also called Anti-ENTPD2 mAb10) VH: QVQLVQSGAEVKKPGSSVKVSCKASGGTFDSYAVSWVRQAPGQGLEWMGRIVPWLGFTRYAQKFQGRVTITADESTSTAYMELSSLRSEDTAVYYCARESPGYRYSFDVWDQGTLVTVSS VL: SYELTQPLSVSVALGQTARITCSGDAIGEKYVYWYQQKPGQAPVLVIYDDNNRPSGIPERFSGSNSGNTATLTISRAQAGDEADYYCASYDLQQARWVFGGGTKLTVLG
Resp: 0.00024

Req: Returns the measured koff for the input binder. Input: ANTI-HUMAN ENTPD2 MAB9 (antibody, human IgG1, lambda, V domains shown, also called Anti-ENTPD2 mAb9) VH: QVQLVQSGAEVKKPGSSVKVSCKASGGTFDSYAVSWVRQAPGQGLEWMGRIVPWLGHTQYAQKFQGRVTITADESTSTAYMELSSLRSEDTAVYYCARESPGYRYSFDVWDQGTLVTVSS VL: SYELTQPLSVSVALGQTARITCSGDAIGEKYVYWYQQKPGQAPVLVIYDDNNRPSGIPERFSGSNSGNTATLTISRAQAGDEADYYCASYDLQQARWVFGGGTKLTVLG
Resp: 0.0003

Req: Need koff of ANTI-HUMAN ENTPD2 MAB5 (antibody, human IgG1, kappa, V domains shown, humanized and optimized from mAb16; human IgG1, kappa; also called Anti-ENTPD2 mAb5) VH: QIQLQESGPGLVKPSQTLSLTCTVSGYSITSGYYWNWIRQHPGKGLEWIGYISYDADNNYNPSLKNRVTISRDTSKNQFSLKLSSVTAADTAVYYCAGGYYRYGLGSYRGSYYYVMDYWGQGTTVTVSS VL: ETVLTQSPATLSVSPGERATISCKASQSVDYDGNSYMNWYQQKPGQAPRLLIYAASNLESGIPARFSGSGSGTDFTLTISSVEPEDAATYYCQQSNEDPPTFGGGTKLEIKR , thanks.
Resp: 0.00016

Req: I am curious: what koff value has been reported for ANTI-HUMAN ENTPD2 MAB6 (antibody, human IgG1, kappa, V domains shown, humanized and optimized from mAb16; human IgG1, kappa; also called Anti-ENTPD2 mAb6) VH: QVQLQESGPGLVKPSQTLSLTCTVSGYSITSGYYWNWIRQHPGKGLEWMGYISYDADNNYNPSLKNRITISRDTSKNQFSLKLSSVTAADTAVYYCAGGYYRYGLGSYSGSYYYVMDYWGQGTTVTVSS VL: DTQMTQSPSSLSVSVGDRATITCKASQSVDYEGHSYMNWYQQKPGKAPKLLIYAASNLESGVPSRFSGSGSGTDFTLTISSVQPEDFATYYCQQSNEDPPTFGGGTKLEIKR ?
Resp: 0.00026

More entries:
Req: Entry ANTI-HUMAN ENTPD2 MAB3 (antibody, human IgG1, kappa, V domains shown, humanized from mAb17; human IgG1, kappa; also called Anti-ENTPD2 mAb3) VH: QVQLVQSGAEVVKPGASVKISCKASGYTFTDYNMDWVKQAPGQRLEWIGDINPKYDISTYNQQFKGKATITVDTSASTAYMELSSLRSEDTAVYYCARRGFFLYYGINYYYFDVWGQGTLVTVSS VL: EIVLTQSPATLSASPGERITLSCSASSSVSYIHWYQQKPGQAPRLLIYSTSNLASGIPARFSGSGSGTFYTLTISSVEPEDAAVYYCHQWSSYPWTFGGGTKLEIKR has what koff?
Resp: 0.00016
